test: solvent given as SMILES; settings: in ClC(Cl)Cl
property: absorption maximum (nm)
Give the value, in units of nm, as a plain number.

Here are 3 molecules together with their reported answers.
entry smiles	property	measurement units	number
FC(F)(F)c1ccc2oc3nc4oc5ccc(N(c6ccccc6)c6ccccc6)cc5c4cc3c2c1	absorption maximum	nm	345
CCCCCCc1cc2c3cscc3c3cc(CCCCCC)sc3c2s1	absorption maximum	nm	393
CC(C)(C)c1ccc(Oc2c3c4c(cc(Oc5ccc(C(C)(C)C)cc5)c5c6c(Oc7ccc(C(C)(C)C)cc7)c(Oc7ccc(C(C)(C)C)cc7)c7c8c(cc(Oc9ccc(C(C)(C)C)cc9)c(c(c2Oc2ccc(C(C)(C)C)cc2)c45)c86)C(=O)OC7=O)C(=O)OC3=O)cc1	absorption maximum	nm	571

absorption maximum lookup needed for C(#Cc1cccs1)C(C#Cc1cccs1)=Cc1ccc(C=C(C#Cc2cccs2)C#Cc2cccs2)cc1 , thanks.
438

absorption maximum lookup needed for F[B-]1(F)OC(c2cccc(Br)c2)=Cc2c3ccccc3c3ccccc3[n+]21 , thanks.
432

absorption maximum lookup needed for CC(C)(C)c1ccc(Oc2cc3c4c(cc(Oc5ccc(C(C)(C)C)cc5)c5c6c(Oc7ccc(C(C)(C)C)cc7)cc7c8c(cc(Oc9ccc(C(C)(C)C)cc9)c(c2c45)c86)C(=O)N(Cc2ccccc2)C7=O)C(=O)N(Cc2ccccc2)C3=O)cc1 , thanks.
581
